- Tested on: M19-MEL melanoma
- MEASUREMENT_PROTOCOL: NCI tumour cell line growth inhibition, 48 h
Documented TGI across a set of compounds

Previously resolved entries follow.
[
  {
    "COMPOUND": "O=C1C2c3[nH]c4ccccc4c3C3CCCCCC3C2C(=O)N1c1ccccc1 (configuration not stated)",
    "TARGET_ENTITY": "M19-MEL melanoma",
    "TGI": "> 100 µM"
  },
  {
    "COMPOUND": "N#C/C(=C\\c1cc(O)ccc1O)C(N)=O",
    "TARGET_ENTITY": "M19-MEL melanoma",
    "TGI": "> 100 µM"
  },
  {
    "COMPOUND": "Clc1ccc(CCc2ccncn2)c(Cl)c1",
    "TARGET_ENTITY": "M19-MEL melanoma",
    "TGI": "> 100 µM"
  },
  {
    "COMPOUND": "CCN(CC)CCC1(C2CCCCC2)CCC(=O)NC1=O (configuration not stated)",
    "TARGET_ENTITY": "M19-MEL melanoma",
    "TGI": "> 100 µM"
  },
  {
    "COMPOUND": "COc1cc(C2C(C(=O)Nc3ccc([N+](=O)[O-])cc3)=C(C)NC(C)=C2C(=O)Nc2ccc([N+](=O)[O-])cc2)ccc1O",
    "TARGET_ENTITY": "M19-MEL melanoma",
    "TGI": "43.3 µM"
  }
]

Query: Kindly indicate its recorded TGI. Item: COc1cc2c(cc1O)CN1CCC23C=C[C@@H](O)CC13 (some centres not stated)
Response: > 100 µM

Query: Kindly indicate its recorded TGI. Item: `CCCCCCCCCCCCCCCCc1c(C(=O)OC)nc(NN)[nH]c1=O`
Response: > 50 µM

Query: Kindly indicate its recorded TGI. Item: `COc1ccc(-c2ccccc2)c2[nH]c3c(c12)CCNC3=O`
Response: > 100 µM

Query: Kindly indicate its recorded TGI. Item: `CCOC(=O)c1cnc2c(ccc3[nH]cccc32)c1=O`
Response: > 100 µM

Query: Kindly indicate its recorded TGI. Item: C#CCNC(=O)NCCCCC(NC(C)=O)C(=O)NCc1ccccc1 (configuration not stated)
Response: > 100 µM

Query: Kindly indicate its recorded TGI. Item: `CCCCNC(=NCc1ccccc1)NC#N`
Response: > 100 µM

Query: Kindly indicate its recorded TGI. Item: `CCCCCCCCCCSC(=O)NC`
Response: > 100 µM
